Assign Minimum inhibitory concentration to each entry below.
test system: Staphylococcus aureus; settings: Staphylococcus aureus, CLSI M7-A10, triplicate 1
Only the number, expressed in µM, is required.

q: Value lookup for Minimum inhibitory concentration; key = GAKLAKKQVRALGKFFSF [At03]
a: 512

q: How about GLYNFIKVLGRTVFGLYKQF [At04] ?
a: 16

q: Repeat with ANRLLEAYKMLLKFLGNLR [Gr02]
a: 1

q: Further, for GSLHGFMYKYLKTLVLRLY [Zm01] ?
a: 16

q: Quick one: KVLSKVHTLLKAVLAL [At02]
a: 4

q: Query GLKDMIKNLAKEAAVKLAGAVINKFSPQPQ [Nat-1, Nattererin-1, reference compound] next
a: 16

q: Now the same for GSLHGFMYKYLKNMVLTLF [At01]
a: 16

====

I'd be grateful if you could share measured Minimum inhibitory concentration for these entries.
System: Staphylococcus aureus
Conditions: Staphylococcus aureus, triplicate 2
Experimental: Antimicrobial activity was tested against three categories of human and plant pathogenic microorganisms: Gram-positive (Bacillus subtilis, Bacillus cereus, Staphylococcus aureus), Gram-negative (Escherichia coli, Pseudomonas aeruginosa, Erwinia carotovora, Pseudomonas syringae pv. tabaci, Xanthomonas campestris pv. citri) and yeasts (Candida albicans, Cryptococcus neoformans), as previously reported. […]
# output: bare number, implied unit µM

q: Which measured Minimum inhibitory concentration value corresponds to GSLHGFMYKYLKTLVLRLY [Zm01] ?
a: 16

q: Would you kindly repeat that for GLLFKELQKLIRYQIFIGK [Tc10] ?
a: 512

q: Next sequence: GIGDILKNLAKAAGKAALHAVGESL [HSP-4, Hylaseptin-4, reference compound]
a: 8

====

Give measured Minimum inhibitory concentration for each item. Keep answers brief.
Tested on: Bacillus subtilis
Details: Bacillus subtilis, CLSI M7-A10, triplicate 1
Protocol: Antimicrobial activity was tested against three categories of human and plant pathogenic microorganisms: Gram-positive (Bacillus subtilis, Bacillus cereus, Staphylococcus aureus), Gram-negative (Escherichia coli, Pseudomonas aeruginosa, Erwinia carotovora, Pseudomonas syringae pv. tabaci, Xanthomonas campestris pv. citri) and yeasts (Candida albicans, Cryptococcus neoformans), as previously reported. […]
Number in µM, nothing else.

q: What value of Minimum inhibitory concentration has been reported for the following sequence? GSLHGFMYRYLKNMVLNLF [Cs01]
a: 8

q: What do we get for IKLRNVLKYLFRIDVIKEDIL [Tc03] ?
a: 16

q: Same question for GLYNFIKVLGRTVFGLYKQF [At04] please.
a: 256

q: Ok, now LHRLVKLVAALLRGYASKVDTH [Tc08]
a: 2

q: Same thing, different sequence: KVLSKVHTLLKAVLAL [At02]
a: 1

q: And what about the sequence FFGHIWHGARTLFRDVFA [Cs02] ?
a: 2

q: // next record GKILKYLLYLLRKYANLIIR [Tc02]
a: 4

q: How about GLLFKELQKLIRYQIFIGK [Tc10] ?
a: 16

q: Can you handle GSLHGFMYKYLKTLVLRLY [Zm01] next?
a: 8

q: How about this sequence: GFKLGRKLVKVFKWII [Gr01]
a: 1

q: Try this sequence too: GAKLAKKQVRALGKFFSF [At03]
a: 8

====

tested on: Bacillus cereus; conditions: Bacillus cereus, CLSI M7-A10, triplicate 1
Give Minimum inhibitory concentration for every item shown.
// note: answer is a bare numeric in µM

q: Item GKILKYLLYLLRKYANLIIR [Tc02] has what recorded Minimum inhibitory concentration?
a: 16

q: And the next one, GLLFKELQKLIRYQIFIGK [Tc10] ?
a: 512

q: Same read-out for KVLSKVHTLLKAVLAL [At02] ?
a: 2

q: Same again, this time with GSLHGFMYRYLKNMVLNLF [Cs01]
a: 64

====

tested on: Escherichia coli; conditions: Escherichia coli, CLSI M7-A10, triplicate 1
property-label: Minimum inhibitory concentration (µM)
Number only, in µM; omit the unit.

q: Entry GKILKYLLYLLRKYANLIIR [Tc02] , system Escherichia coli: what Minimum inhibitory concentration was measured?
a: 8

q: Cool, now FFYNVIKIYGNMAGRISK [Cs03]
a: 128

q: Also GLKDMIKNLAKEAAVKLAGAVINKFSPQPQ [Nat-1, Nattererin-1, reference compound] , if possible.
a: 8

q: Field entry: FFGHIWHGARTLFRDVFA [Cs02]
a: 8
